target_or_system: Recombinant human MMP-2 (Homo sapiens, UniProt P08253)
Construct: made in house
Sequence (P08253 110-660): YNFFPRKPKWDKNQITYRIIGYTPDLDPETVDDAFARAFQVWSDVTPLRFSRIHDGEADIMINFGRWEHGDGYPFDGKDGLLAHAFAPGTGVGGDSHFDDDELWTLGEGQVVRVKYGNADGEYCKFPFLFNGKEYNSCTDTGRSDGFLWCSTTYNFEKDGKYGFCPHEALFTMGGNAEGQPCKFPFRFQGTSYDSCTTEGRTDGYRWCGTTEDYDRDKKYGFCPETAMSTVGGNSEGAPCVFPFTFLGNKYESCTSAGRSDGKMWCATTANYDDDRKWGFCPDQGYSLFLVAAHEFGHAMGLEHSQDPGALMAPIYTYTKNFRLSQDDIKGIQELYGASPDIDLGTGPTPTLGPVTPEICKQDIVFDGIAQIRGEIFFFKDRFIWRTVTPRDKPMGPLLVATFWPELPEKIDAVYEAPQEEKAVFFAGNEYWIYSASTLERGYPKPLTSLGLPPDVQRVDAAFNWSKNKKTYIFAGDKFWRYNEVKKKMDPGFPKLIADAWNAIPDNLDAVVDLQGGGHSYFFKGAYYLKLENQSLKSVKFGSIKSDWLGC
assay: biochemical
assay_conditions: fluorogenic MCA-peptide substrate, pH 7.5, room temperature; read-out: MMP-2 IC50
measure_name: pIC50
Numbers only, as −log10 of the molar value.

Before answering, review these 2 worked examples.
INSERT INTO measurements (molecule, target_or_system, measure_name, value_observed) VALUES
  ('CCc1ccc(C(=O)C2CCN(c3ccc(S(=O)(=O)C4(C(=O)NO)CCN(CC)CC4)cc3)CC2)cc1', 'Recombinant human MMP-2 (Homo sapiens, UniProt P08253)', 'pIC50', 6.71),
  ('C#CCN1CCC(C(=O)NO)(S(=O)(=O)c2ccc(N3CCC(C(=O)c4cccc(C)c4)CC3)cc2)CC1', 'Recombinant human MMP-2 (Homo sapiens, UniProt P08253)', 'pIC50', 6.75);

Report pIC50 for each item below.
1. COCCN1CCC(C(=O)NO)(S(=O)(=O)c2ccc(N3CCC(C(=O)c4ccc(C)cc4)CC3)c(Cl)c2)CC1
2. CC(C)CCOc1ccc(C(=O)C2CCN(c3ccc(S(=O)(=O)C4(C(=O)NO)CCN(C5CC5)CC4)cc3)CC2)cc1

Result:
1. 5.17
2. 6.57
